Test system: Wolbachia pipientis
Assay: Anti-Wolbachia Cell-Based Screen
Type: functional
Set-up: scale not given: in the data most compounds retested in dose-response had high values
Details: 5 µM
Hit rate of the full screen: of about 48,000 compounds, about 13,000 (27%) showed an effect of 50% or more. The list shows a part of the results.
Recorded Percent Effect by entry
Note to self: number, then unit, no commentary.

In [3]: df
Out[3]:
                                   molecule   measurement_target  measurement
0  O=C(CCn1ccc2ccc(F)cc21)/N=c1\[nH]nc(C2CCCO2)s1 (centres undefined)  Wolbachia pipientis       105.1%
1  O=C(c1ccccc1)N1C[C@@H]2CC[C@H](C1)N(C(=O)CN1CCOCC1)C2  Wolbachia pipientis      -9.595%
2  O=C(CC1CCCO1)Nc1ccc2c(ccn2CCN2CCOCC2)c1 (centres undefined)  Wolbachia pipientis      -5.067%

Recorded Percent Effect of O=C(CCn1ccc2cc(Br)ccc21)/N=c1\[nH]nc(C2CCCO2)s1 (centres undefined) , please.
98.02%

Each recorded value in this set is attributed to ChEMBL document CHEMBL3988442.
